experiment: Clearance in CD rat at 1 mg/kg, iv and 5 mg/kg, po; type: ADME, organism-based; settings: in vivo
measurement-type: clearance (mL/min/kg)

| molecule | measurement-type | experimental-result |
| --- | --- | --- |
| CCC(NC(=O)c1ccc2c(c1)c(C)c(C)n2Cc1ccc(-c2ccccc2C(=O)O)cc1)c1ccccc1 (stereo unspecified) | clearance | 40 |

* * *

test: Oral bioavailability in CD rat at 1 mg/kg, iv; assay type: ADME, organism-based; settings: in vivo
measurement-type: bioavailability (%)

| compound | measurement-type | experimental-result |
| --- | --- | --- |
| CCC(NC(=O)c1ccc2c(c1)c(C)c(C)n2Cc1ccc(-c2ccccc2C(=O)O)cc1)c1ccccc1 (stereo unspecified) | bioavailability | 52 |

From: ChEMBL document CHEMBL1156860
